Entries annotated with measured melting point

compound	melting point
C[C@H](CN(C)C)[C@H]1CC[C@H]2[C@@H]3CC(=O)[C@H]4C[C@H](O)[C@H](O)C[C@]4(C)[C@H]3CC[C@]12C [15a]	219 to 221 °C

Any idea what melting point was measured for C[C@H]([C@@H](O)[C@@H](O)CN(C)C)[C@H]1CC[C@H]2[C@@H]3CC(=O)[C@H]4C[C@H](O)[C@H](O)C[C@]4(C)[C@H]3CC[C@]12C.Cl [22a] ?
> 270 °C (dec.)

I'd like to know its melting point. The compound in question is C[C@H](CN1CCCC1)[C@H]1CC[C@H]2[C@@H]3CC(=O)[C@H]4C[C@H](O)[C@H](O)C[C@]4(C)[C@H]3CC[C@]12C [15c]
> 240 °C (dec.)

For the compound C[C@H](C(=O)N1CCCC1)[C@H]1CC[C@H]2[C@@H]3CC(=O)[C@H]4C[C@H](O)[C@H](O)C[C@]4(C)[C@H]3CC[C@]12C [8c] , what melting point is on record?
> 180 °C (dec.)

Source: paper PMC7795425
